Here the recorded % inhibition at 5 µg/ml antibody is given for each entry.
Molecular target: T1, human GM-CSF (human, UniProt P04141 18-144)
T1 construct: mature; the preparation is named under assay or readout; also called hGM-CSF; recombinant human GM-CSF
T1 sequence (P04141 18-144): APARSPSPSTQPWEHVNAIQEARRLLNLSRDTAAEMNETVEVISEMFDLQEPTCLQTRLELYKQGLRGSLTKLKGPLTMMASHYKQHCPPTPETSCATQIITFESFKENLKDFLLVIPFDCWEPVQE
Assay: FACS receptor inhibition assay: inhibition of binding of 0.5 µg/ml biotinylated GM-CSF to GM-CSF receptor alpha on CHO-GMRa#11 cells
Reported metric: % inhibition at 5 µg/ml antibody

INSERT INTO measurements (binder, measured) VALUES
  ('MOR04354 Fab (Fab, V domains shown, X-cloned Fab (VH of MOR04290 x VL of MOR04302) with FLAG and 6xHis tags) VH: QVQLVESGGGLVQPGGSLRLSCAASGFTFSSYWMNWVRQAPGKGLEWVSGIESKWAGGATYYAAGVKGRFTISRDNSKNTLYLQMNSLRAEDTAVYYCARGFGTDFWGQGTLVTVSS VL: DIELTQPPSVSVAPGQTARISCSGDSIGKKYAYWYQQKPGQAPVLVIYKKRPSGIPERFSGSNSGNTATLTISGTQAEDEADYYCSAWGDKGMVFGGGTKLTVLG', '~75%'),
  ('MOR03684 Fab (Fab, V domains shown, carries two C-terminal tags (FLAG and 6xHis); also called antibody no) VH: QVQLVESGGGLVQPGGSLRLSCAASGFTFSSHWMSWVRQAPGKGLEWVSNGIFSDGSATYYADSVKGRFTISRDNSKNTLYLQMNSLRAEDTAVYYCARFQGYGGGFDYWGQGTLVTVSS VL: DIELTQPPSVSVAPGQTARISCSGDNLPGKYVHWYQQKPGQAPVLVIYYDSNRPSGIPERFSGSNSGNTATLTISGTQAEDEADYYCQSRTQTTIVFGGGTKLTVLG', '~25%'),
  ('MOR04252 Fab (Fab, V domains shown, Fab with FLAG and 6xHis tags) VH: QVQLVESGGGLVQPGGSLRLSCAASGFTFSSYWMNWVRQAPGKGLEWVSGIENKYAGGATYYAASVKGRFTISRDNSKNTLYLQMNSLRAEDTAVYYCARGFGTDFWGQGTLVTVSS VL: DIELTQPPSVSVAPGQTARISCSGDSIGKKYAYWYQQKPGQAPVLVIYKKRPSGIPERFSGSNSGNTATLTISGTQAEDEADYYCSSWDSTGLVFGGGTKLTVLG', '~75%');
